- ASSAY OVERVIEW: glucagon-like peptide 1 release enhancers, primary assay, NCI-H716 cell line, NPC library (AID 1117341); further: reference of the scale not given here
- TEST CONTEXT: NCI-H716 cells, at 10 µM, stronger effect = higher value
Activity calls are given as the source filed them.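 How the source made its calls: active means compound raises GLP1 secretion from the human gut endocrine cells, with no numeric limit stated; inactive means the rest.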
QUANTITY MEASURED: GLP1 secretion stimulation

• O=S(=O)(O)c1ccc(O)cc1 = -0.7% (inactive)

**Q:** Note down GLP1 secretion stimulation recorded for `CCCCCCNC(=O)n1cc(F)c(=O)[nH]c1=O`
**A:** -0.8% (inactive)

**Q:** Please report the measured GLP1 secretion stimulation for `C[C@]12C=CC(=O)C=C1[C@@H](F)C[C@@H]1[C@@H]2[C@@H](O)C[C@@]2(C)[C@H]1CC[C@]2(O)C(=O)CO`
**A:** -2.3% (inactive)

**Q:** Kindly indicate its recorded GLP1 secretion stimulation. Item: `COC1=C(OC)C(=O)C(CC=C(C)CCC=C(C)CCC=C(C)CCC=C(C)CCC=C(C)CCC=C(C)CCC=C(C)CCC=C(C)CCC=C(C)CCC=C(C)C)=C(C)C1=O`
**A:** 1.9% (inactive)

**Q:** Hello, please tell me recorded GLP1 secretion stimulation for this one: O=C1NC2CCCCN2C12CCN(CCCN1c3ccccc3CCc3ccc(Cl)cc31)CC2 (stereo unspecified)
**A:** 13.3% (inactive)

====

- ASSAY OVERVIEW: survival rescue of mitochondrial mutant cells in low glucose, primary screen, MELAS cybrids, Rieske KO mouse fibroblasts, CellTiter-Glo (AID 1508586);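 further: z relative to plate mean and SD of compound and empty wells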
- TEST CONTEXT: Rieske KO mouse fibroblast survival, CellTiter-Glo 72 h
Param threshold (-0.06) applies to z-score; output t when value >= threshold, f when value < threshold.

Here are 3 compounds together with their reported answers.
- Cc1cccc(Nc2ccncc2S(=O)(=O)NC(=O)NC(C)C)c1: f
- COc1cc2c(cc1Nc1nc(Nc3cccc(F)c3C(N)=O)c3cc[nH]c3n1)N(C(=O)CN1CCN(C(C)C)CC1)CC2: f
- CCN1CCC(CC(=O)Nc2n[nH]c3nc(-c4cccs4)c(Br)cc23)CC1: f

**Q:** // inclusive: z-score at least -0.06? input: `NCc1ccc(S(N)(=O)=O)cc1`
**A:** t

**Q:** Evaluate `COC(=O)Nc1nc2ccc(Oc3cccc(NC(=O)Nc4cc(C(F)(F)F)ccc4F)c3)cc2[nH]1` : z-score at minimum -0.06?
**A:** t

**Q:** Please tell me: is the compound `FC(F)(F)c1cccc(-c2nn3ncccc3c2-c2ccnc(Nc3ccc4c(c3)OCCO4)n2)c1` at or over -0.06 in terms of z-score?
**A:** f

====

- ASSAY OVERVIEW: decreased DLD-1 cellular survival, CellTiter-Glo luminescent readout, NPC compound collection, primary HTS (AID 1117346)
- TEST CONTEXT: DLD-1 viability, CellTiter-Glo luminescence; at 20 µM (top of the series)
Starred links: 1 amine or outer side, 2 acyl side, 3 side chain; linkers in the order of their positions; H or OH if unused. Positions of bridges follow the written chain, without caps; N, C: chain ends. Non-standard residues stand in square brackets, D forms with d. Residues, ends and D or L forms follow the SMILES beside them. ξ: configuration not given here. *: point of attachment. ΔAla(3-NHCONH2) = NC(=O)NC=C(N)C(=O)O; X1 = NC1=NCCC(C(N[*:1])C(=O)[*:2])N1; ξβ3hOrn = NCCCC(N)CC(=O)*; Dap = NC[CH](N)C(=O)O
viability decrease (inhibition) for assorted compounds
The figure you give is taken to be in %; do not add the unit.

Sample answers from the record:
• CCCCCCCCCCCCCCCC(=O)OCC(COC(=O)CCCCCCCCCCCCCCC)OC(=O)CCCCCCCCCCCCCCC = -6.5
• NC[C@H]1O[C@H](O[C@H]2[C@H](O[C@@H]3O[C@H](CO)[C@@H](O)[C@H]3O)C(O)[C@H](N)C[C@@H]2N)[C@H](N)[C@@H](O)[C@@H]1O (some centres undefined) = -14.4
• NCCCC(N)CC(=O)NCC1NC(=O)C(CO)NC(=O)C(N)CNC(=O)C(C2CCN=C(N)N2)NC(=O)C(=CNC(N)=O)NC1=O (stereo not drawn) (H-[Dap]S[Dap](ξβ3hOrn)[ΔAla(3-NHCONH2)][X1]; lactam 1-C; configuration not given here) = -12
• O=[N+]([O-])c1nccn1CO[C@@H](CO)[C@H](O)CO = -5.8
• COc1ccc2c(c1)c(CC(=O)O)c(C)n2C(=O)c1ccc(Cl)cc1 = 3.4
• CN1CCN(C(=O)C2CCCCC2)CC1 = 11.9
• CCOC(=O)c1cccc(N)c1 = 4.45
• OCc1ccc(Cl)cc1Cl = 13.2

Okay, now this compound:
**Q:** Write down viability decrease (inhibition) measured for item `CC(=O)OC[C@H]1O[C@@](COC(C)=O)(O[C@H]2O[C@H](COC(C)=O)[C@@H](OC(C)=O)[C@H](OC(C)=O)[C@H]2OC(C)=O)[C@@H](OC(C)=O)[C@@H]1OC(C)=O`
**A:** -8
